target: BRD3 BD1 (Homo sapiens, UniProt Q15059); assay: Competitive FP binding assay, BRD3 BD1; details: Table 8, read-out: IC50 (nM) in FP assays BRD3 BD1
Sequence (Q15059 34-140 limits assumed): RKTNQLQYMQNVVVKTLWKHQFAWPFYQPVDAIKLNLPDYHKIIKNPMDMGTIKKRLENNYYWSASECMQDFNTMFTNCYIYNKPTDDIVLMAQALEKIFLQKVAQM
Reported metric: IC50 (nM)
State the answer as a number, implicitly in nM.

Compound: Cc1nnc(C[C@@H]2N=C(c3ccc(Cl)cc3)c3c(sc(C#CC4CCOCC4)c3C)-n3c(C)nnc32)o1 [Compound 145]
Observed: 38.6
//
Compound: Cc1c(C#CC2CCOCC2)sc2c1C(c1ccc(Cl)cc1)=N[C@@H](CC(=O)N1CC(C)(O)C1)c1nnc(C)n1-2 [Compound 158]
Observed: 63.7
//
Compound: Cc1c(C#CC2CCOCC2)sc2c1C(c1ccc(Cl)cc1)=N[C@@H](CC(=O)N1CCC(C)(O)CC1)c1nnc(C)n1-2 [Compound 157]
Observed: 85.1

Let us examine a further case.
## Task BRD3 BD1 (Homo sapiens, UniProt Q15059) / IC50 / Cc1c(C#CC2CCOCC2)sc2c1C(c1ccc(Cl)cc1)=N[C@@H](CC(=O)N1CCC(O)CC1)c1nnc(C)n1-2 [Compound 159] : value?
## Result 76.5
